# System: Escherichia coli TOP10;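 also: peptides expressed intracellularly from a pBAD plasmid library in pooled LB shake-flask culture, induced with 0.3% L-arabinose, DNA abundance read by NGS, three biological replicates, DESeq2 with apeglm shrinkage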
# assay.info: shrunken log2 fold change of peptide-encoding DNA abundance (4.5 h post-induction vs induction); higher = less antimicrobial activity (less host growth inhibition)
# test.conditions: time post-induction: 4.5 h; library: site-saturation at positions 5, 18, 19, 20
Returns one of y or n; y when shrunken log2 fold change is >= -0.1.

chain: RRIRCRPPRLPRPRPRPNTLPRP
qualitative.label: n
//
chain: RRIRTRPPRLPRPRPRPDFKPRP
qualitative.label: n
//
chain: RRIRKRPPRLPRPRPRPQFPPRP
qualitative.label: y
//
chain: RRIRDRPPRLPRPRPRPASFPRP
qualitative.label: y
//
chain: RRIRIRPPRLPRPRPRPTPYPRP
qualitative.label: n
//
chain: RRIRQRPPRLPRPRPRPCPKPRP
qualitative.label: y
//
chain: RRIRTRPPRLPRPRPRPCCYPRP
qualitative.label: n
//
chain: RRIRVRPPRLPRPRPRPPHEPRP
qualitative.label: y
//
chain: RRIRKRPPRLPRPRPRPKETPRP
qualitative.label: y
//
chain: RRIRKRPPRLPRPRPRPNGYPRP
qualitative.label: y
//
chain: RRIRYRPPRLPRPRPRPWTTPRP
qualitative.label: y
//
chain: RRIRYRPPRLPRPRPRPHNSPRP
qualitative.label: n
//
chain: RRIRNRPPRLPRPRPRPHKFPRP
qualitative.label: n
//
chain: RRIRERPPRLPRPRPRPSASPRP
qualitative.label: n

The reported measurements were obtained from the supplement of paper PMC9112550.
